# protocol_notes: Tumor cell line cytotoxicity of flavonoid dimers, LCC6
# Format: cell-based, human
# recorded_conditions: human, LCC6 cells, IC50 of compound alone
# Description: (b) Tumor Cell Line Cytotoxicity. The tumor cytotoxicity assays of flavonoid dimers were performed against LCC6, LCC6MDR and L929 cell lines. […] In brief, LCC6, LCC6MDR and L929 cells were seeded into 96-well flat bottom microtiter plate at 1×10^4 cells per well in a final volume of 100 μL media, respectively. A graded dose of flavonoid dimers was added into wells. The plate was incubated at 37° C. for 72 hrs at the atmosphere 5% CO2 in the air. The % of survivors was determined.
quantity_name: IC50 at 72 h (µM)
One number for each entry, in µM.

molecule: C[C@H](N)C(=O)N(CCOCCOc1ccc(-c2cc(=O)c3ccccc3o2)cc1)CCOCCOc1ccc(-c2cc(=O)c3ccccc3o2)cc1 [Compound 23b]
observed_result: 4.4

molecule: Cc1cccc(CN(CCOCCOc2ccc(-c3cc(=O)c4ccccc4o3)cc2)CCOCCOc2ccc(-c3cc(=O)c4ccccc4o3)cc2)c1
observed_result: 57.7

Prompt: Return reported IC50 at 72 h; argument: `O=c1cc(-c2ccc(OCCOCCN(CCOCCOc3ccc(-c4cc(=O)c5ccccc5o4)cc3)Cc3ccc([N+](=O)[O-])cc3)cc2)oc2ccccc12`
Response: 86.8

Recorded values, source patent US8980848B2.
